# maps each entry to its MIC50
# Test system: L1210
# test description: Minimum inhibitory concentration (MIC) required to inhibit proliferation of murine leukemia L1210 (TK-)
# Assay type: functional
# conditions: Mus musculus
endpoint label: MIC50

compound	study target	endpoint label	measured value
O=c1[nH]c(=O)n([C@H]2C[C@H](O)[C@@H](CO)O2)cc1/C=C/I	L1210	MIC50	5.1 µg/mL
O=c1[nH]c(=O)n([C@@H]2C[C@H](CO)[C@@H](O)C2)cc1I	L1210	MIC50	> 200 µg/mL
O=c1[nH]c(=O)n([C@H]2C[C@@H](CO)[C@H](O)C2)cc1/C=C/Br	L1210	MIC50	> 200 µg/mL
O=c1[nH]c(=O)n(C2CC(O)C(CO)C2)cc1/C=C/I (stereo not given)	L1210	MIC50	> 200 µg/mL
O=c1[nH]c(=O)n([C@H]2C[C@H](O)[C@@H](CO)O2)cc1I [IDOXURIDINE]	L1210	MIC50	> 500 µg/mL

====

# Test system: Human alphaherpesvirus 2
# test description: Minimum inhibitory concentration (MIC) required to reduce HSV-2 strain G induced cytopathogenicity in primary rabbit kidney cell cultures
# Type: functional
So basically: is MIC50 under 20 µg/mL? Then label 1. Not under? Then label 0.

compound	study target	category label
NC1NC(=O)N([C@H]2C[C@H](O)[C@@H](CO)O2)C=C1/C=C/Br (some centres not stated)	Human alphaherpesvirus 2	label 1
O=c1[nH]c(=O)n([C@H]2C[C@H](O)[C@@H](CO)O2)cc1/C=C/I	Human alphaherpesvirus 2	label 1
O=c1[nH]c(=O)n([C@H]2C[C@H](O)[C@@H](CO)O2)cc1I	Human alphaherpesvirus 2	label 1
O=c1[nH]c(=O)n([C@@H]2C[C@H](CO)[C@@H](O)C2)cc1I	Human alphaherpesvirus 2	label 0
O=c1[nH]c(=O)n(C2CC(O)C(CO)C2)cc1/C=C/I (configuration not stated)	Human alphaherpesvirus 2	label 1

The origin of these recorded values is ChEMBL document CHEMBL1123080.
